test system: MDA-MB-231; assay: NCI tumour cell line growth inhibition, 48 h
Active and inactive are the calls of the source. No stated cut-off is given here; in the data, active = GI50 up to about 1.1 µM and inactive = higher.

molecule: Cc1cc(S(=O)(=O)Nc2n[nH]c(Nc3ccccc3)n2)c(S)cc1Cl
target of assay: MDA-MB-231
GI50: > 10 µM (inactive)
//
molecule: CCCCCCCCCCCCCCCC(=O)Nc1ccn(C2OC(CO)C(O)C2O)c(=O)n1 (stereo unspecified)
target of assay: MDA-MB-231
GI50: > 62.8 µM (inactive)
//
molecule: C#CCOC(=O)C(N)CC(N)=O (stereo unspecified)
target of assay: MDA-MB-231
GI50: > 100 µM (inactive)
//
molecule: O/N=C(/CC(O)(C(F)(F)F)C(F)(F)F)c1ccccc1
target of assay: MDA-MB-231
GI50: > 10 µM (inactive)
//
molecule: O=[N+]([O-])c1ccccc1S(=O)(=O)c1cc(O)cc2c1NCCC2
target of assay: MDA-MB-231
GI50: 18.2 µM (inactive)
//
molecule: FC(F)(F)c1ccc(Cc2nc3cc4ccccc4cc3[nH]2)cc1
target of assay: MDA-MB-231
GI50: > 100 µM (inactive)
//
molecule: N=c1c2ccccc2nc2oc3ccc(Cl)cc3n12
target of assay: MDA-MB-231
GI50: 25.6 µM (inactive)
//
molecule: O=C1NC(=S)NC(=O)C1=Cc1cccc2cc3ccccc3cc12
target of assay: MDA-MB-231
GI50: 2.01 µM (inactive)
//
molecule: O=C(c1cccs1)N(C(=O)N1CCN(c2ccccc2)CC1)S(=O)(=O)c1ccccc1
target of assay: MDA-MB-231
GI50: 23.1 µM (inactive)
//
molecule: Nc1cc(CO)cc(Nc2c3ccccc3nc3occc23)c1
target of assay: MDA-MB-231
GI50: 31.8 µM (inactive)
//
molecule: COc1ccc2nc3c([N+](=O)[O-])ccc4c3c(c2c1)N=CN4CCN(C)C
target of assay: MDA-MB-231
GI50: 1.84 µM (inactive)
//
molecule: Cc1ccc(NC(=O)C(Cc2c[nH]c3ccccc23)NC(=O)Oc2ccccc2)cc1C (stereo unspecified)
target of assay: MDA-MB-231
GI50: > 100 µM (inactive)
//
molecule: CCOC(=O)/C=C\c1c(Cl)n(-c2ccccc2)c(=O)n(-c2ccccc2)c1=O
target of assay: MDA-MB-231
GI50: 21.2 µM (inactive)
//
molecule: CN(C)CCOc1ccc2[nH]c(C(=O)N3CC(CCl)c4c3cc(NC(=O)OCc3ccc([N+](=O)[O-])cc3)c3ccccc43)cc2c1 (stereo unspecified)
target of assay: MDA-MB-231
GI50: 2.14 µM (inactive)
//
molecule: CCCCCCCCCCCCCCCCNc1nc(=O)n(C2OC(C)C(O)C2O)cc1F (stereo unspecified)
target of assay: MDA-MB-231
GI50: 20.7 µM (inactive)
//
molecule: COc1cc(O)c2c(c1)C(O)C(O)CC1OC1C(=O)/C=C/CC(C)OC2=O (stereo unspecified)
target of assay: MDA-MB-231
GI50: 3.86 µM (inactive)

====

test system: OVCAR-4; experiment: NCI tumour cell line growth inhibition, 48 h
Calls of active or inactive are those of the source. Rule as the data show it: active = GI50 up to about 1.1 µM and inactive = higher.

compound: Cc1ccc(OCCn2cc(Nc3ccccc3)c(=O)n(CCOc3ccc(C)cc3)c2=O)cc1
GI50: 49.9 µM (inactive)
//
compound: Cn1c(=O)nc2n(CCO)ccnc-2c1=O
GI50: > 100 µM (inactive)
//
compound: O=C1[C@H](O)[C@@H]2C(O)O[C@H]3[C@@H]2N1C[C@H]3[Si](c1ccccc1)(c1ccccc1)c1ccccc1 (stereo partly specified)
GI50: > 100 µM (inactive)
//
compound: c1ccc2cc(CN3CCC(C4CCN(Cc5ccc6ccccc6c5)CC4)CC3)ccc2c1
GI50: 6.21 µM (inactive)
//
compound: COc1cc(CC2C(=O)OCC2Cc2ccc(OC)c(OC)c2)ccc1O (stereo unspecified)
GI50: > 100 µM (inactive)
//
compound: COc1cc(OCc2nc3ccccc3n3cccc23)cc(OC)c1OC
GI50: 10.8 µM (inactive)
//
compound: COc1cc(CNCc2cc(OC)c(OC)c(OC)c2)cc(OC)c1OC
GI50: > 10 µM (inactive)
//
compound: CCc1ccc(Nc2ccc([N+](=O)[O-])cc2[N+](=O)[O-])cc1
GI50: 34.5 µM (inactive)
//
compound: O=[N+]([O-])c1ccccc1S(=O)(=O)c1cc(O)cc2c1NCCC2
GI50: 15.3 µM (inactive)
//
compound: Cc1cc2c3c(nc4ccccc42)C(=O)c2ccccc2-c3n1
GI50: 25.4 µM (inactive)
//
compound: CCOC(=O)C1=C(C(=O)OCC)SC2(S1)C(C(=O)OCC)=C(C(=O)OCC)Sc1c2ssc1=O
GI50: 1.27 µM (inactive)
//
compound: Fc1cc2nc3n(c2cc1F)C(c1c(Cl)cccc1Cl)SC3 (stereo unspecified)
GI50: 15.9 µM (inactive)
//
compound: O=C1Nc2c(ccc(Cl)c2I)C1=O
GI50: 16.9 µM (inactive)
//
compound: CCN(CC)c1ccc(C2NC(=O)c3ccccc3N2)cc1 (stereo unspecified)
GI50: > 100 µM (inactive)
//
compound: CC(=O)CCN1CC2CN=NC2(C#N)C1 (stereo unspecified)
GI50: > 100 µM (inactive)
//
compound: O=C(NC1C=CCC2C(=O)N(c3ccccc3)C(=O)C12)OCc1ccccc1 (stereo unspecified)
GI50: > 100 µM (inactive)
//
compound: O=C1c2ccccc2-n2c1nc1ccccc1c2=O [TRYPTANTHRIN]
GI50: 19.1 µM (inactive)
//
compound: C/C=C/C1=CC(=O)C(O)C1O (stereo unspecified)
GI50: 37.1 µM (inactive)
//
compound: O=C1NC(=S)NC(=O)C1=Cc1cccc2cc3ccccc3cc12
GI50: 2.28 µM (inactive)
//
compound: COC(=O)c1ccc(CN2CCc3c([nH]c4ccccc34)C2CO)o1 (stereo unspecified)
GI50: > 10 µM (inactive)
//
compound: O=C(N/N=C/c1ccccc1)c1c(F)c(F)c(F)c(F)c1F
GI50: > 100 µM (inactive)
//
compound: CSc1c(CC(=O)Nc2ccc(Cl)cc2)n(Cc2ccccc2)c2ccccc12
GI50: 11.7 µM (inactive)
//
compound: O=C1C=CC2(C=C1)CCC(=O)O2
GI50: 14.8 µM (inactive)
//
compound: O=C1CCCc2cc3c(cc21)CC1(C3)Cc2ccc3c(c2C1)C(=O)CCC3 (stereo unspecified)
GI50: 13.9 µM (inactive)
//
compound: CCCCCCCCCCCCCCCCOCC(CP(=O)([O-])OCC[n+]1ccccc1)OC (stereo unspecified)
GI50: 11.4 µM (inactive)
//
compound: CC1=C(CO)C(=O)O[C@@H]([C@@H](C)[C@H]2CC[C@H]3[C@@H]4C[C@@H](O)[C@@]5(O)CC=CC(=O)[C@]5(C)[C@H]4CC[C@]23C)C1 [JABOROSALACTONE D]
GI50: 32.2 µM (inactive)
//
compound: O=C1c2cccc3cc4ccccc4c(c23)C(=O)N1CCCNCCNCCCN1C(=O)c2cccc3cc4ccccc4c(c23)C1=O
GI50: 0.129 µM (active)
//
compound: NCCCOc1ccc([N+](=O)[O-])cc1Cl
GI50: > 100 µM (inactive)
//
compound: OCCCC(O)(c1ccccc1)c1ccccc1
GI50: > 100 µM (inactive)
//
compound: COC(=O)C1=C(\c2ccccc2)c2ccccc2C(=O)N(C2CCCCC2)/C=C\1
GI50: 27.7 µM (inactive)
//
compound: CN1CC2=C(OC(N)=C(C#N)C2c2cccs2)/C(=C/c2cccs2)C1 (stereo unspecified)
GI50: 5.52 µM (inactive)
